Data provenance: patent US8030354B2

Biological target: GPR40 (Homo sapiens)
Assay: Inositol phosphate accumulation assay (A9_GPR40 cells)
Format: cell-based
Parameters: expressed in transfected cells; host or cells: CHO cells stably transfected with GPR40 and aequorin
Conditions: inositol phosphate assay, A9_GPR40 cells, 1 hour; read-out: IP3 EC50
Test Readout: EC50

Worked cases, answers included:
| Compound | Test System | EC50 |
| --- | --- | --- |
| COc1ccc(F)c(-c2ccc(COc3cccc(C(CC(=O)O)CC4CC4)c3F)cc2C2CCCC2(C)C)c1 (single isomer, unassigned) [Example 84.1] | GPR40 (Homo sapiens) | < 10 nM |
| COc1ccc(F)c(-c2ccc(COc3cccc(C(CC(=O)O)C4CC4)c3F)cc2CN2CCCCCC2)c1 (single isomer, unassigned) | GPR40 (Homo sapiens) | 100 to 1000 nM |

Now consider a different compound.
May I ask what EC50 has been recorded for COc1ccc(F)c(-c2ccc(COc3cccc([C@@H](CC(=O)O)[C@@H]4C[C@H]4C)c3)cc2C2=CCCC2(C)C)c1 (single isomer, unassigned) ?
10 to 100 nM

====

Target: GPR40 (Homo sapiens)
Test: Cell-based aequorin assay (CHO cells stably expressing GPR40 and aequorin)
Parameters: expressed in transfected cells; host or cells: CHO cells stably transfected with GPR40 and aequorin
Conditions: activation of human GPR40, CHO cells, 0.01% HSA
Quick reference for EC50 among some compounds

Use these answered entries as a reference point.
| Compound | Assay Value |
| --- | --- |
| COc1ccc(F)c(-c2ccc(COc3cccc(C(CC(=O)O)CC4CC4)c3)cc2CN2[C@H](C)CC[C@H]2C)c1 (single isomer, unassigned) | 100 to 1000 nM |
| C[C@H](CC(=O)O)c1cccc(OCc2ccc(-c3cc(O)ccc3F)c(C(C)(C)C)c2)c1 (single isomer, unassigned) | 100 to 1000 nM |

Let's switch to this compound now.
Suppose we examine the compound CCC(CC(=O)O)c1cccc(OCc2ccc(-c3cc(OC)ccc3F)c(C(OC)C(C)(C)CC)c2)c1 (single isomer, unassigned) ; what EC50 value has been reported?
10 to 100 nM

====

Biological target: GPR40 (Homo sapiens)
Experiment: Cell-based aequorin assay (CHO cells stably expressing GPR40 and aequorin)
Design: expressed in transfected cells; host or cells: CHO cells stably transfected with GPR40 and aequorin
Settings: activation of human GPR40, CHO cells, 0.01% HSA
pEC50: −log10 of the molar value.
Test Readout: pEC50

Reported pEC50, compound CCC[C@H](CC(=O)O)c1cccc(OCc2ccc(-c3cc(OC)ccc3F)c(OC3CCCCO3)c2)c1 (single isomer, unassigned) : ____
6.00 to 7.00

I would be grateful if you could share the reported pEC50 for COc1ccc(F)c(-c2ccc(COc3cccc(C(CC(=O)O)CC4CC4)c3)cc2CN2CCCC2)c1 (single isomer, unassigned) .
5.00 to 6.00

====

Target: GPR40 (Homo sapiens)
Assay: Cell-based aequorin assay (CHO cells stably expressing GPR40 and aequorin)
Design: expressed in transfected cells; host or cells: CHO cells stably transfected with GPR40 and aequorin
Settings: activation of human GPR40, CHO cells, 0.01% HSA
Description: Briefly, the Aequorin assays were performed on doubly stable CHO cells expressing GPR40 and Aequorin DNA. […] The luminescence was recorded over a period of 20 seconds with a Microlumat luminometer (Berthold). […] The inositol phosphate assay was performed on an A9 cell line stably transfected with GPR40 (A9_GPR40). The cells were incubated with different concentrations of compounds and [^3H] inositol accumulation was measured after 1 hour. […]
pEC50: −log10 of the molar value.
Measured pEC50, listed per entry.

Consider the worked cases shown below.
| Compound | Assay Value |
| --- | --- |
| COc1ccc(F)c(-c2ccc(COc3cccc(C(CC(=O)O)C4CC4)c3F)cc2C2=CCCC2(C)C)c1 (single isomer, unassigned) [Example 99.1] | 5.00 to 6.00 |
| CC(=O)c1cccc(-c2ccc(COc3cccc([C@@H](CC(=O)O)C4CC4)c3)cc2[C@H]2CCCC2(C)C)c1 (single isomer, unassigned) | 5.00 to 6.00 |
| CCC(CC(=O)O)c1cccc(OCc2ccc(-c3cc(OC)ccc3F)c(C3CCCC3(C)C)c2)c1 (single isomer, unassigned) [Example 78.3] | 6.00 to 7.00 |
| COc1ccc(F)c(-c2ccc(COc3cccc(C(CC(=O)O)CC4CC4)c3)cc2C2OCCCC2(C)C)c1 (single isomer, unassigned) | 6.00 to 7.00 |
| CCC(CC(=O)O)c1ccc(F)c(OCc2ccc(-c3cc(OC)ccc3F)c(C3=CCCC3(C)C)c2)c1 (single isomer, unassigned) | 6.00 to 7.00 |
| CCCCOc1cc(COc2cccc([C@H](CC)CC(=O)O)c2)ccc1-c1cc(OC)ccc1F (single isomer, unassigned) | 6.00 to 7.00 |

Next item in the queue.
Reported pEC50, compound CCCC(CC(=O)O)c1cccc(OCc2ccc(-c3cc(OC)ccc3F)c(C3CCCCCC3)c2)c1 (single isomer, unassigned) : ____
6.00 to 7.00

====

Target: GPR40 (Homo sapiens)
Assay: Inositol phosphate accumulation assay (A9_GPR40 cells)
Assay type: cell-based
Parameters: expressed in transfected cells; host or cells: CHO cells stably transfected with GPR40 and aequorin
Conditions: inositol phosphate assay, A9_GPR40 cells, 1 hour; read-out: IP3 EC50
# EC50 annotations

The following molecules have reported results that may help.
| Molecule | Assay Value |
| --- | --- |
| COc1ccc(F)c(-c2cc(F)c(COc3cccc(C(CC(=O)O)CC4CC4)c3F)cc2C2CCCC2(C)C)c1 (single isomer, unassigned) | < 10 nM |
| CCCC(CC(=O)O)c1cccc(OCc2ccc(-c3cc(OC)ccc3F)c(C3CCCCCC3)c2)c1 (single isomer, unassigned) | 10 to 100 nM |
| COc1ccc(F)c(-c2ccc(COc3cccc(C(CC(=O)O)CC4CC4)c3F)cc2C2=CCCC2(C)C)c1 (single isomer, unassigned) | 10 to 100 nM |

Record request: EC50 value, item COc1ccc(F)c(-c2ccc(COc3cccc([C@@H](CC(=O)O)C4CC4)c3)cc2C2=CCCC2(C)C)c1 (single isomer, unassigned)
10 to 100 nM

Which measured EC50 value corresponds to COc1ccc(F)c(-c2ccc(COc3cccc(C(C)(C)CC(=O)O)c3)cc2C2CCCC2(C)C)c1 (single isomer, unassigned) ?
10 to 100 nM

Look up EC50: COc1ccc(F)c(-c2ccc(COc3cccc([C@@H](CC(=O)O)C4CC4)c3)cc2C(C)(C)C)c1 (single isomer, unassigned)
100 to 1000 nM

====

Target: GPR40 (Homo sapiens, UniProt O14842)
Sequence (O14842 whole entry): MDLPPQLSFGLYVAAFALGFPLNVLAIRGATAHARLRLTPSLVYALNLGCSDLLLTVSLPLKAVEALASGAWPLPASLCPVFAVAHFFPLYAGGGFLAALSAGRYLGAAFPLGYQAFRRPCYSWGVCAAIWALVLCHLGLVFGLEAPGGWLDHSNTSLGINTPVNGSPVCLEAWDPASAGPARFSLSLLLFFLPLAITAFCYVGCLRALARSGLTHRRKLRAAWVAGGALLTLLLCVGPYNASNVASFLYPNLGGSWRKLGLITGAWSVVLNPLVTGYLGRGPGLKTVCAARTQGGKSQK
Assay: Inositol phosphate accumulation assay (A9_GPR40 cells)
Type: cell-based
Set-up: expressed in transfected cells; host or cells: CHO cells stably transfected with GPR40 and aequorin
Conditions: inositol phosphate assay, A9_GPR40 cells, 1 hour; read-out: IP3 EC50
pEC50: −log10 of the molar value.
Test Readout: pEC50

| Compound | pEC50 |
| --- | --- |
| COc1ccc(F)c(-c2ccc(COc3cccc([C@@H](CC(=O)O)CC4CC4)c3)cc2C2CCCC2C)c1 (single isomer, unassigned) | 7.00 to 8.00 |
| CCCC(CC(=O)O)c1cccc(OCc2ccc(-c3cccc(OC)c3)c(C3=CCCC3(C)C)c2)c1 (single isomer, unassigned) | 7.00 to 8.00 |
| CCCCOc1cc(COc2cccc(C(CC(=O)O)C3CCC3)c2)ccc1-c1cc(OC)ccc1F (single isomer, unassigned) | 6.00 to 7.00 |
| CCC(CC(=O)O)c1cccc(OCc2ccc(-c3cc(OC)ccc3F)c(C3CCCCC3(C)C)c2)c1F (single isomer, unassigned) | > 8.00 |
| COc1cc(-c2ccc(COc3cc(F)cc(C(CC(=O)O)CC4CC4)c3)cc2C2CCCC2(C)C)c(F)cn1 (single isomer, unassigned) | > 8.00 |

Lab note: next compound to report on.
Please report the recorded pEC50 for CC[C@H](CC(=O)O)c1cccc(OCc2ccc(-c3cc(Cl)ccc3F)c(C3=CCCC3(C)C)c2)c1 (single isomer, unassigned) .
7.00 to 8.00

====

Molecular target: GPR40 (Homo sapiens, UniProt O14842)
Assay: Cell-based aequorin assay (CHO cells stably expressing GPR40 and aequorin)
Parameters: expressed in transfected cells; host or cells: CHO cells stably transfected with GPR40 and aequorin
Details: activation of human GPR40, CHO cells, 0.01% HSA
The molecules listed here are annotated with their EC50.

| Molecule | Assay Value |
| --- | --- |
| COCCO[C@H](c1cc(COc2cccc([C@@H](CC(=O)O)CC3CC3)c2)ccc1-c1cc(OC)ccc1F)C(C)(C)C (single isomer, unassigned) | 0.01 to 0.1 µM |

Return reported EC50; argument: COc1ccc(F)c(-c2ccc(COc3cccc(C(CC(=O)O)CC4CC4)c3)cc2COCC=C(C)C)c1 (single isomer, unassigned)
1 to 10 µM

Query (molecule): CCOc1cccc(-c2ccc(COc3cccc(C(C)CC(=O)O)c3)cc2C(C)(C)C)c1 (single isomer, unassigned) ; field requested: EC50
1 to 10 µM

Query: EC50; subject: C=CC[C@H](CC(=O)O)c1cccc(OCc2ccc(-c3cc(OC)ccc3F)c(C(C)(C)C)c2)c1 (single isomer, unassigned)
0.1 to 1 µM

I am curious: what EC50 value has been reported for COc1cc(-c2ccc(COc3cccc(C(CC(=O)O)C4CC4)c3)cc2C2=CCCC2(C)C)ccn1 (single isomer, unassigned) ?
0.1 to 1 µM

Requested read-out: EC50. Entry: COc1cccc(-c2ccc(COc3cccc(C(CC(=O)O)C4CC4)c3)cc2C2CCCC2(C)C)c1 (stereo not drawn) [Example 66.8]
0.01 to 0.1 µM

Query: EC50; subject: COc1ccc(F)c(-c2ccc(COc3cccc(C(C)CC(=O)O)c3)cc2C(C)(C)C)c1 (single isomer, unassigned)
0.1 to 1 µM

Look at this molecule and give its reported EC50. COc1ccc(F)c(-c2ccc(COc3cccc([C@@H](CC(=O)O)C4CC4)c3)cc2COC(C)(C)C)c1 (single isomer, unassigned)
1 to 10 µM

What does the data say about its EC50? Entry: COc1ccc(F)c(-c2ccc(COc3cccc(C(C)(CC(=O)O)C4CC4)c3)cc2[C@H]2CCCC2(C)C)c1 (single isomer, unassigned)
0.1 to 1 µM
